measured.on: HSP90a protein (Homo sapiens)
Construct: purchased BPS Bioscience 50298
assay.explanation: HSP90α-binding fluorescent polarization (FP) assay, BODIPY-labeled RNK04010 probe
test.parameters: FP competition with RNK04010 (BODIPY-labeled), 5 nM, 300 min at 25° C.

molecule	measured.on	IC50
C=CC(=O)N1CCN(c2nc(OC[C@@H]3C[C@H](NC(=O)C4CCN(C(=O)C5CCN(Cc6ccc(-n7c(C(=O)NCC(F)(F)C(F)(F)F)nnc7-c7cc(C(C)C)c(O)cc7O)cc6)CC5)CC4)CN3C)nc3c2CCN(c2cccc4cccc(Cl)c24)C3)C[C@@H]1CC#N	HSP90a protein (Homo sapiens)	< 100 nM
C=CC(=O)N1CCN(c2nc(OC[C@@H]3CCN(C(=O)c4cc(C(C)C)c(OC)cc4O)C3)nc3c2CCN(c2cccc4cccc(Cl)c24)C3)C[C@@H]1CC#N	HSP90a protein (Homo sapiens)	> 1000 nM
C=CC(=O)N1CCN(c2nc(OC[C@@H]3C[C@H](N4CCC(C(=O)N5CCN(CCNC(=O)c6nnc(-c7cc(C(C)C)c(O)cc7O)n6-c6ccccc6)CC5)CC4)CN3C)nc3c2CCN(c2cccc4cccc(Cl)c24)C3)C[C@@H]1CC#N	HSP90a protein (Homo sapiens)	< 100 nM
C=CC(=O)N1CCN(c2nc(OC[C@@H]3CN(C(=O)C4CCN(Cc5ccc(-n6c(C(=O)NCC(F)(F)F)nnc6-c6cc(C(C)C)c(O)cc6O)cc5)CC4)CCN3C)nc3c2CCN(c2cccc4cccc(Cl)c24)C3)C[C@@H]1CC#N	HSP90a protein (Homo sapiens)	< 100 nM
C=CC(=O)N1CCN(c2nc(OCCN3CCN(C(=O)C4CCN(Cc5ccc(-n6c(O)nnc6-c6cc(C)c(O)cc6O)cc5)CC4)CC3)nc3c2CCN(c2cccc4cccc(Cl)c24)C3)C[C@@H]1CC#N	HSP90a protein (Homo sapiens)	< 100 nM
C=CC(=O)N1CCN(c2nc(NCCC(=O)NCCOCCOc3ccc(-n4c(O)nnc4-c4cc(CC)c(O)cc4O)cc3)nc3c2CCN(c2cc(O)cc4ccccc24)C3)CC1	HSP90a protein (Homo sapiens)	> 1000 nM
C=CC(=O)N1CCN(c2nc(OC[C@@H]3C[C@H](NC(=O)C4CCN(C(=O)C5CCN(Cc6ccc(-n7c(O)nnc7-c7cc(C)c(O)cc7O)cc6)CC5)CC4)CN3C)nc3c2CCN(c2cccc4cccc(Cl)c24)C3)C[C@@H]1CC#N	HSP90a protein (Homo sapiens)	< 100 nM
C=CC(=O)N1CCN(c2nc(NCCC(=O)NCC3CCC(C(=O)N4CCN(Cc5ccc(-n6c(O)nnc6-c6cc(CC)c(O)cc6O)cc5)CC4)CC3)nc3c2CCN(c2cc(O)cc4ccccc24)C3)CC1 (centres unmarked)	HSP90a protein (Homo sapiens)	100 to 1000 nM
C=CC(=O)N1CCN(c2nc(OCCN3CCC4(CC3)CCN(C(=O)C3CCN(Cc5ccc(-n6c(C(N)=O)nnc6-c6cc(C(C)C)c(O)cc6O)cc5)CC3)CC4)nc3c2CCN(c2cccc4cccc(Cl)c24)C3)C[C@@H]1CC#N	HSP90a protein (Homo sapiens)	< 100 nM
CCC(=O)N1CCN(c2nc(NCCC(=O)NCc3ccc(-n4c(O)nnc4-c4ccc(O)cc4O)cc3)nc3c2CCN(c2cc(O)cc4ccccc24)C3)CC1	HSP90a protein (Homo sapiens)	> 1000 nM
C=CC(=O)N1CCN(c2nc(OC[C@@H]3CCN(C(=O)C4CCN(Cc5ccc(-n6c(C(=O)NCC(F)(F)F)nnc6-c6cc(C(C)C)c(O)cc6O)cc5)CC4)C3)nc3c2CCN(c2cccc4cccc(Cl)c24)C3)C[C@@H]1CC#N	HSP90a protein (Homo sapiens)	100 to 1000 nM
C=CC(=O)N1CCN(c2nc(NCCC(=O)NCCOCCOCCOc3ccc(-n4c(O)nnc4-c4cc(CC)c(O)cc4O)cc3)nc3c2CCN(c2cc(O)cc4ccccc24)C3)CC1	HSP90a protein (Homo sapiens)	> 1000 nM
CC(=O)N1CCN(c2nc(NCCC(=O)N3CCC(CN4CCN(Cc5ccc(-n6c(O)nnc6-c6cc(C(C)C)c(O)cc6O)cc5)CC4)CC3)nc3c2CCN(c2cc(O)cc4ccccc24)C3)CC1	HSP90a protein (Homo sapiens)	< 100 nM
C=CC(=O)N1CCN(c2nc(OC[C@@H]3CCN(CCC(=O)c4cc(C(C)C)c(O)cc4O)C3)nc3c2CCN(c2cccc4cccc(Cl)c24)C3)C[C@@H]1CC#N	HSP90a protein (Homo sapiens)	> 1000 nM
C=CC(=O)N1CCN(c2nc(NCCC(=O)NCc3ccc(-n4c(O)nnc4-c4cc(C(C)C)c(O)cc4O)cc3F)nc3c2CCN(c2cccc4ccccc24)C3)C[C@H]1CC#N	HSP90a protein (Homo sapiens)	100 to 1000 nM
C=CC(=O)N1CCN(c2nc(OC[C@@H]3CCN(C(=O)c4ccc5c(c4)CN(C(=O)c4cc(C(C)C)c(O)cc4O)C5)C3)nc3c2CCN(c2cccc4cccc(Cl)c24)C3)C[C@@H]1CC#N	HSP90a protein (Homo sapiens)	> 1000 nM
C=CC(=O)N1CCN(c2nc(OC[C@@H]3CCN(C(=O)C4CCN(Cc5ccc(-n6c(O)nnc6-c6cc(C(C)C)c(O)cc6O)cc5)CC4)C3)nc3c2CCN(c2cccc4cccc(Cl)c24)C3)C[C@@H]1CC#N	HSP90a protein (Homo sapiens)	< 100 nM

----------
measured.on: KRAS(G12C) (Homo sapiens, UniProt P01116, G12C)
Sequence (P01116 1-188 isoform P01116-2 G12C): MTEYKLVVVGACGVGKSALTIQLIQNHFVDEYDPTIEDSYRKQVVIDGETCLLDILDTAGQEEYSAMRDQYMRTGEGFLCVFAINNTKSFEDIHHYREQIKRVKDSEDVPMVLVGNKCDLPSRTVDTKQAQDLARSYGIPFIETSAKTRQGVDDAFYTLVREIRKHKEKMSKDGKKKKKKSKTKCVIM
assay.explanation: KRAS(G12C) Western blot protein degradation assay in LU65A cells
Type: cell-based
Set-up: LU65A human lung cancer cell line, which expresses KRAS(G12C); host or cells: LU65A
test.parameters: 6 hr

molecule	DC50
C=CC(=O)N1CCN(c2nc(OCCN3CCN(Cc4ccc(-n5c(O)nnc5-c5cc(C(C)C)c(O)cc5O)cc4)CC3)nc3c2CCN(c2cccc4cccc(Cl)c24)C3)C[C@@H]1CC#N [Compound 351]	100 to 1000 nM
C=CC(=O)N1CCN(c2nc(OC[C@@H]3CC[C@H](CN4CCN(C(=O)C5CCN(Cc6ccc(-n7c(O)nnc7-c7cc(C)c(O)cc7O)cc6)CC5)CC4)N3C)nc3c2CCN(c2cccc4ccccc24)C3)C[C@@H]1CC#N [Compound 256]	> 1000 nM
C=CC(=O)N1CCN(c2nc(OCCN3CCC(C(=O)N4CCN(Cc5ccc(-n6c(C(=O)NCC(F)(F)F)nnc6-c6cc(C)c(O)cc6O)cc5)CC4)CC3)nc3c2CCN(c2cccc4cccc(Cl)c24)C3)C[C@@H]1CC#N [Compound 253]	> 1000 nM
C=CC(=O)N1CCN(c2nc(OC[C@@H]3CC[C@H](CN4CCN(Cc5ccc(-n6c(C(=O)NCC)nnc6-c6cc(C(C)C)c(O)cc6O)cc5)CC4)N3C)nc3c2CCN(c2cccc4ccccc24)C3)C[C@@H]1CC#N [Compound 288]	> 1000 nM
C=CC(=O)N1CCN(c2nc(OC[C@@H]3C[C@H](N4CCN(Cc5ccc(-n6c(C(=O)NCC)nnc6-c6cc(C(C)C)c(O)cc6O)cc5)CC4)CN3C)nc3c2CCN(c2cccc4ccccc24)C3)C[C@@H]1CC#N [Compound 271]	100 to 1000 nM
C=CC(=O)N1CCN(c2nc(OC[C@@H]3C[C@H](N4CCC5(CCN(Cc6ccc(-n7c(C(=O)NCC)nnc7-c7cc(C(C)C)c(O)cc7O)cc6)CC5)CC4)CN3C)nc3c2CCN(c2cccc4cccc(Cl)c24)C3)C[C@@H]1CC#N [Compound 259]	< 100 nM
C=CC(=O)N1CCN(c2nc(OC[C@@H]3C[C@H](N4CCN(Cc5ccc(-n6c(O)nnc6-c6cc(C(C)C)c(O)cc6O)cc5)CC4)CN3C)nc3c2CCN(c2cccc4cccc(C)c24)C3)C[C@@H]1CC#N [Compound 279]	100 to 1000 nM
C=C(F)C(=O)N1CCN(c2nc(OCCN3CCN(C(=O)C4CCN(Cc5ccc(-n6c(O)nnc6-c6cc(C(C)C)c(O)cc6O)cc5)CC4)CC3)nc3c2CCN(c2cccc4cccc(Cl)c24)C3)C[C@@H]1CC#N [Compound 224]	> 1000 nM
C=CC(=O)N1CCN(c2nc(OCCN3CCC(C(=O)N4CCN(Cc5ccc(-n6c(C(=O)NCC(F)(F)F)nnc6-c6cc(C)c(O)cc6O)cc5)CC4)CC3)nc3c2CCN(c2cccc4cccc(Cl)c24)C3)C[C@@H]1CC#N [Compound 254]	> 1000 nM
C=CC(=O)N1CCN(c2nc(OC[C@@H]3C[C@H](N4CCN(C(=O)C5CCN(Cc6ccc(-n7c(O)nnc7-c7cc(C(C)C)c(O)cc7O)cc6)CC5)CC4)CN3C)nc3c2CCN(c2cccc4cccc(Cl)c24)C3)C[C@@H]1CC#N [Compound 264]	100 to 1000 nM
C=CC(=O)N1CCN(c2nc(OC[C@@H]3C[C@H](N4CCN(Cc5ccc(-n6c(O)nnc6-c6cc(C)c(O)cc6O)cc5)CC4)CN3C)nc3c2CCN(c2cccc4cccc(Cl)c24)C3)C[C@@H]1CC#N [Compound 252]	> 1000 nM
C=CC(=O)N1CCN(c2nc(OC[C@@H]3CC[C@H](CN4CCN(C(=O)C5CCN(Cc6ccc(-n7c(O)nnc7-c7cc(C(C)C)c(O)cc7O)cc6)CC5)CC4)N3C)nc3c2CCN(c2cccc4ccccc24)C3)C[C@@H]1CC#N [Compound 255]	100 to 1000 nM
C=CC(=O)N1CCN(c2nc(OC[C@@H]3C[C@H](N4CCN(Cc5ccc(-n6c(C(=O)NCC)nnc6-c6cc(C(C)C)c(O)cc6O)cc5)CC4)CN3C)nc3c2CCN(c2cccc4cccc(C)c24)C3)C[C@@H]1CC#N [Compound 280]	100 to 1000 nM
C=CC(=O)N1CCN(c2nc(OC[C@@H]3CC[C@H](CN4CCN(C(=O)C5CCN(Cc6ccc(-n7c(C(=O)NCC)nnc7-c7cc(CC)c(O)cc7O)cc6)CC5)CC4)N3C)nc3c2CCN(c2cccc4cccc(Cl)c24)C3)C[C@@H]1CC#N [Compound 244]	100 to 1000 nM
C=CC(=O)N1CCN(c2nc(OC[C@@H]3CC[C@H](CN4CCN(Cc5ccc(-n6c(O)nnc6-c6cc(C(C)C)c(O)cc6O)cc5)CC4)N3C)nc3c2CCN(c2cccc4ccc(F)c(Cl)c24)C3)C[C@@H]1CC#N [Compound 268]	> 1000 nM
C=CC(=O)N1CCN(c2nc(OC[C@@H]3CC[C@H](CN4CCN(C(=O)C5CCN(Cc6ccc(-n7c(C(=O)NCC)nnc7-c7cc(C(C)C)c(O)cc7O)cc6)CC5)CC4)N3C)nc3c2CCN(c2cccc4cccc(Cl)c24)C3)C[C@@H]1CC#N [Compound 240]	100 to 1000 nM
C=CC(=O)N1CCN(c2nc(OC[C@@H]3CC[C@H](CN4CCN(C(=O)C5CCN(Cc6ccc(-n7c(O)nnc7-c7cc(CC)c(O)cc7O)cc6)CC5)CC4)N3C)nc3c2CCN(c2cccc4cccc(Cl)c24)C3)C[C@@H]1CC#N [Compound 245]	> 1000 nM
